These entries and their values trace back to PubChem BioAssay.

- assay procedure: SU-DIPG-XXV glioma cell viability, MIPE5.0 library, qHTS (AID 1347068)
Records with an inconclusive call do not appear. The source made the active and inactive calls. No cut-off is given here; in the data, nearly all actives have IC50 up to about 30 µM.
// one of active, inactive, no free text

Check out these entries, answers already filled in.
CN(C)[C@@H]1C(=O)C(C(N)=O)=C(O)[C@@]2(O)C(=O)C3=C(O)c4c(O)cccc4[C@@](C)(O)[C@H]3C[C@@H]12; inactive
CN1[C@@H]2CC(O)C[C@H]1[C@@H]1O[C@@H]12 (stereo not given in full); inactive
Cc1cc(SCc2sc(-c3ccc(C(F)(F)F)c(F)c3)nc2C)ccc1OCC(=O)O; inactive
CN[C@@H]1Cc2cccc3[nH]c(=O)n(c23)C1; inactive
C[C@]12CCC(=O)C(O)=C1CC[C@@H]1[C@@H]2CC[C@]2(C)C(=O)CC[C@@H]12; inactive

Req: What classification did N=C1NC(=O)N2CC12 (stereo not given) end up with in this test?
Resp: inactive

----------
- Tested on: Aerobactin synthetase IucA (Klebsiella pneumoniae hvKP1)
- assay procedure: Biochemical IucA enzyme inhibition primary screen of the Spectrum library (AID 1346200);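 note: 100% = wells without compound and 0% = wells lacking enzyme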
- condition parameters: malachite green pyrophosphate, A620, at 8 µM, stronger effect = lower value
Calls of active or inactive are those of the source. The rule behind the calls is not given here.
outcome measure: activity remaining

Reference set, count: 5
CC(=O)O[C@H]1C[C@@H](OC(C)=O)C(C)(C)C2C[C@@H](OC(C)=O)[C@@]3(C)C4=CC(=O)O[C@@H](c5ccoc5)[C@]4(C)CCC3[C@]21C (stereo partly drawn); 102% (inactive)
CC(=O)Oc1ccc(Cl)c2cccnc12; 124% (inactive)
NC(=O)c1ccc([N+](=O)[O-])cc1Cl; 107% (inactive)
CNS(=O)(=O)Cc1ccc2[nH]cc(CCN(C)C)c2c1; 115% (inactive)
Clc1ccc(CSC(Cn2ccnc2)c2ccc(Cl)cc2Cl)cc1 (stereo not drawn); 106% (inactive)

Entry COC(=O)Nc1nc2ccc(C(=O)c3ccccc3)cc2[nH]1 — recorded activity remaining = 104% (inactive)

Entry COCCc1ccc(OCC(O)CNC(C)C)cc1 (stereo not drawn) — recorded activity remaining = 113% (inactive)

Entry C[C@]12CCC3c4ccc(O)cc4CCC3C1C[C@@H](O)[C@@H]2O (stereo partly drawn) — recorded activity remaining = 99.6% (inactive)

Entry CCCC(=O)Nc1ncnc2c1ncn2C1O[C@@H]2COP(=O)(O)O[C@H]2[C@H]1OC(=O)CCC (stereo partly drawn) — recorded activity remaining = 107% (inactive)

Entry CC(=O)O[C@H]1C[C@@H](OC(C)=O)C(C)(C)C2CC(=O)[C@]3(C)C(CC[C@@]4(C)[C@H](c5ccoc5)OC(=O)[C@H]5O[C@]543)[C@]21C (stereo partly drawn) — recorded activity remaining = 107% (inactive)

Entry CN[C@@H]1[C@H](OC2[C@H](O[C@H]3[C@H](O)[C@@H](O)[C@H](N=C(N)N)[C@@H](O)[C@@H]3N=C(N)N)O[C@@H](C)[C@]2(O)C=O)O[C@@H](CO)[C@H](O)[C@H]1O (stereo partly drawn) — recorded activity remaining = 108% (inactive)

Entry CCN(CC)CCCC(C)Nc1ccnc2cc(Cl)ccc12 (stereo not drawn) — recorded activity remaining = 93% (inactive)

Entry CCN1CCCC(OC(=O)C(c2ccccc2)c2ccccc2)C1 (stereo not drawn) — recorded activity remaining = 110% (inactive)

Entry NC(=O)c1cccc(N)c1 — recorded activity remaining = 121% (inactive)

Entry Nc1ccc(S(N)(=O)=O)cc1 — recorded activity remaining = 116% (inactive)

Entry CC(=O)O[C@@](C)(CCC=C(C)C)C1CC=C(C)CC1 (stereo partly drawn) — recorded activity remaining = 91.6% (inactive)
